System: SNB-19
protocol.description: NCI60 antitumor screening
Format: cell-based, human
test.parameters: 10 μM one-dose
recorded.endpoint: GI%

Example entries begin here.
{"molecule": "N#Cc1c(Cl)nc(SCc2ccc([N+](=O)[O-])cc2)nc1-c1ccc(F)cc1 [3c]", "GI%": "10.67%"}
{"molecule": "N#Cc1c(-c2ccc(F)cc2)nc(SCc2ccc(F)cc2)nc1N1CCOCC1 [4b]", "GI%": "56.32%"}
{"molecule": "Cc1ccc(CSc2nc(Cl)c(C#N)c(-c3ccc(F)cc3)n2)cc1 [3d]", "GI%": "— (GI% < 10)"}
{"molecule": "N#Cc1c(-c2ccc(F)cc2)nc(SCc2ccc([N+](=O)[O-])cc2)[nH]c1=O [2c]", "GI%": "— (GI% < 10)"}
{"molecule": "N#Cc1c(-c2ccc(F)cc2)nc(SCc2ccc(F)cc2)[nH]c1=O [2b]", "GI%": "18.35%"}

**Q:** Quick one: GI% for N#Cc1c(Cl)nc(SCc2ccccc2)nc1-c1ccc(F)cc1 [3a] ?
**A:** 16.70%

**Q:** Quick one: GI% for Cc1ccc(CSc2nc(-c3ccc(F)cc3)c(C#N)c(N3CCOCC3)n2)cc1 [4d] ?
**A:** 44.48%

**Q:** Quick one: GI% for N#Cc1c(Cl)nc(SCc2ccc(F)cc2)nc1-c1ccc(F)cc1 [3b] ?
**A:** — (GI% < 10)

**Q:** Quick one: GI% for N#Cc1c(-c2ccc(F)cc2)nc(SCc2ccc([N+](=O)[O-])cc2)nc1N1CCOCC1 [4c] ?
**A:** 53.96%

**Q:** Quick one: GI% for N#Cc1c(-c2ccc(F)cc2)nc(SCc2ccccc2)nc1N1CCOCC1 [4a] ?
**A:** — (GI% < 10)

**Q:** Quick one: GI% for Cc1ccc(CSc2nc(-c3ccc(F)cc3)c(C#N)c(=O)[nH]2)cc1 [2d] ?
**A:** — (GI% < 10)
